Assay: Phase 1b plasma pharmacokinetics of ARRY-382 and metabolites
Type: in vivo, human
Conditions: human, plasma, oral, 400 mg, Cmax, geometric mean (geometric %CV), Cycle 1 day 1; Phase 1b; ARRY-382 400 mg; n = 7
Property measured: Cmax (ng/mL)
Kindly answer with a numeric value in ng/mL, unit omitted.

Item Cc1cccc(Cn2nc(C3CC3)c3c(NC(=O)c4cnc5cc(OCCN6CCN(C)CC6)ccn45)cccc32)n1 has what recorded Cmax?
1330

----------
Assay: Phase 2 plasma pharmacokinetics of ARRY-382 and metabolites
Format: in vivo, human
Conditions: human, plasma, oral, 300 mg, AUClast, geometric mean (geometric %CV), Cycle 2 day 1, Overall, n = 15
Property measured: AUC(0-t) (ng·h/mL)
Kindly answer with a numeric value in ng·h/mL, unit omitted.

Item Cc1cccc(Cn2nc(C3CC3)c3c(NC(=O)c4cnc5cc(OCCN6CCN(C)CC6)ccn45)cccc32)n1 has what recorded AUC(0-t)?
28500

----------
Assay: Phase 2 plasma pharmacokinetics of ARRY-382 and metabolites
Assay type: in vivo, human
Settings: human, plasma, oral, 300 mg, Cmax, geometric mean (geometric %CV), Cycle 2 day 1, PDA, n = 4
Property measured: Cmax (ng/mL)
Kindly answer with a numeric value in ng/mL, unit omitted.

Item Cc1cccc(Cn2nc(C3CC3)c3c(NC(=O)c4cnc5cc(OCCN6CCN(C)CC6)ccn45)cccc32)n1 has what recorded Cmax?
2820

----------
Experiment: Phase 1b plasma pharmacokinetics of ARRY-382 and metabolites
Type: in vivo, human
Details: human, plasma, oral, 400 mg, AUClast, geometric mean (geometric %CV), Cycle 1 day 1; Phase 1b; ARRY-382 400 mg; n = 7
Property measured: AUC(0-t)
Note: state the figure and append the unit.

Item Cc1cccc(Cn2nc(C3CC3)c3c(NC(=O)c4cnc5cc(OCCN6CCN(C)CC6)ccn45)cccc32)n1 has what recorded AUC(0-t)?
6790 ng·h/mL

----------
Experiment: Phase 2 plasma pharmacokinetics of ARRY-382 and metabolites
Format: in vivo, human
Conditions: human, plasma, oral, 300 mg, Cmax, geometric mean (geometric %CV), Cycle 2 day 1, prOVCA, n = 5
Property measured: Cmax (µg/mL)
Kindly answer with a numeric value in µg/mL, unit omitted.

Item Cc1cccc(Cn2nc(C3CC3)c3c(NC(=O)c4cnc5cc(OCCN6CCN(C)CC6)ccn45)cccc32)n1 [ARRY-382] has what recorded Cmax?
1.58

----------
Test: Phase 1b plasma pharmacokinetics of ARRY-382 and metabolites
Format: in vivo, human
Settings: human, plasma, oral, 200 mg, AUClast, geometric mean (geometric %CV), Cycle 2 day 1; Phase 1b; ARRY-382 200 mg; n = 4
Property measured: AUC(0-t) (ng·h/mL)
Kindly answer with a numeric value in ng·h/mL, unit omitted.

Item Cc1cccc(Cn2nc(C3CC3)c3c(NC(=O)c4cnc5cc(OCCN6CCN(C)CC6)ccn45)cccc32)n1 [ARRY-382] has what recorded AUC(0-t)?
22800

----------
Experiment: Phase 1b plasma pharmacokinetics of ARRY-382 and metabolites
Assay type: in vivo, human
Conditions: human, plasma, oral, 400 mg, Cmax, geometric mean (geometric %CV), Cycle 2 day 1; Phase 1b; ARRY-382 400 mg; n = 3
Property measured: Cmax (ng/mL)
Kindly answer with a numeric value in ng/mL, unit omitted.

Item Cc1cccc(Cn2nc(C3CC3)c3c(NC(=O)c4cnc5cc(OCCN6CCN(C)CC6)ccn45)cccc32)n1 has what recorded Cmax?
2560

----------
Assay: Phase 1b plasma pharmacokinetics of ARRY-382 and metabolites
Assay type: in vivo, human
Details: human, plasma, oral, 300 mg, AUClast, geometric mean (geometric %CV), Cycle 2 day 1; Phase 1b; ARRY-382 300 mg; n = 4
Property measured: AUC(0-t) (ng·h/mL)
Kindly answer with a numeric value in ng·h/mL, unit omitted.

Item Cc1cccc(Cn2nc(C3CC3)c3c(NC(=O)c4cnc5cc(OCCN6CCN(C)CC6)ccn45)cccc32)n1 has what recorded AUC(0-t)?
30600

----------
Test: Phase 2 plasma pharmacokinetics of ARRY-382 and metabolites
Type: in vivo, human
Conditions: human, plasma, oral, 300 mg, Cmax, geometric mean (geometric %CV), Cycle 2 day 1, Overall, n = 15
Property measured: Cmax

Item Cc1cccc(Cn2nc(C3CC3)c3c(NC(=O)c4cnc5cc(OCCN6CCN(C)CC6)ccn45)cccc32)n1 has what recorded Cmax?
2080 ng/mL

----------
Assay: Phase 1b plasma pharmacokinetics of ARRY-382 and metabolites
Type: in vivo, human
Details: human, plasma, oral, 200 mg, AUClast, geometric mean (geometric %CV), Cycle 1 day 1; Phase 1b; ARRY-382 200 mg; n = 6
Property measured: AUC(0-t) (ng·h/mL)
Kindly answer with a numeric value in ng·h/mL, unit omitted.

Item Cc1cccc(Cn2nc(C3CC3)c3c(NC(=O)c4cnc5cc(OCCN6CCN(C)CC6)ccn45)cccc32)n1 has what recorded AUC(0-t)?
3720

----------
Assay: Phase 1b plasma pharmacokinetics of ARRY-382 and metabolites
Type: in vivo, human
Settings: human, plasma, oral, 200 mg, Cmax, geometric mean (geometric %CV), Cycle 1 day 1; Phase 1b; ARRY-382 200 mg; n = 6
Property measured: Cmax (µg/mL)
Kindly answer with a numeric value in µg/mL, unit omitted.

Item Cc1cccc(Cn2nc(C3CC3)c3c(NC(=O)c4cnc5cc(OCCN6CCN(C)CC6)ccn45)cccc32)n1 has what recorded Cmax?
0.773

----------
Assay: Phase 2 plasma pharmacokinetics of ARRY-382 and metabolites
Assay type: in vivo, human
Conditions: human, plasma, oral, 300 mg, AUClast, geometric mean (geometric %CV), Cycle 1 day 1, PDA, n = 26
Property measured: AUC(0-t) (ng·h/mL)
Kindly answer with a numeric value in ng·h/mL, unit omitted.

Item Cc1cccc(Cn2nc(C3CC3)c3c(NC(=O)c4cnc5cc(OCCN6CCN(C)CC6)ccn45)cccc32)n1 has what recorded AUC(0-t)?
6350

----------
Experiment: Phase 1b plasma pharmacokinetics of ARRY-382 and metabolites
Format: in vivo, human
Conditions: human, plasma, oral, 400 mg, Tmax, median (range), Cycle 2 day 1; Phase 1b; ARRY-382 400 mg; n = 3
Property measured: Tmax (h)
Kindly answer with a numeric value in h, unit omitted.

Item Cc1cccc(Cn2nc(C3CC3)c3c(NC(=O)c4cnc5cc(OCCN6CCN(C)CC6)ccn45)cccc32)n1 has what recorded Tmax?
1.98

----------
Assay: Phase 1b plasma pharmacokinetics of ARRY-382 and metabolites
Assay type: in vivo, human
Details: human, plasma, oral, 300 mg
Property measured: AUC

Item Cc1cccc(Cn2nc(C3CC3)c3c(NC(=O)c4cnc5cc(OCCN6CCN(C)CC6)ccn45)cccc32)n1 [ARRY-382] has what recorded AUC?
30600 ng·h/mL

----------
Assay: Phase 2 plasma pharmacokinetics of ARRY-382 and metabolites
Type: in vivo, human
Conditions: human, plasma, oral, 300 mg, Cmax, geometric mean (geometric %CV), Cycle 1 day 1, Overall, n = 55
Property measured: Cmax

Item Cc1cccc(Cn2nc(C3CC3)c3c(NC(=O)c4cnc5cc(OCCN6CCN(C)CC6)ccn45)cccc32)n1 has what recorded Cmax?
1270 ng/mL

----------
Assay: Phase 1b plasma pharmacokinetics of ARRY-382 and metabolites
Type: in vivo, human
Settings: human, plasma, oral, 300 mg, Cmax, geometric mean (geometric %CV), Cycle 1 day 1; Phase 1b; ARRY-382 300 mg; n = 6
Property measured: Cmax (ng/mL)
Kindly answer with a numeric value in ng/mL, unit omitted.

Item Cc1cccc(Cn2nc(C3CC3)c3c(NC(=O)c4cnc5cc(OCCN6CCN(C)CC6)ccn45)cccc32)n1 has what recorded Cmax?
995

----------
Test: Phase 2 plasma pharmacokinetics of ARRY-382 and metabolites
Type: in vivo, human
Conditions: human, plasma, oral, 300 mg, Tmax, median (range), Cycle 1 day 1, PD-1/PD-L1 IR, n = 18
Property measured: Tmax (h)
Kindly answer with a numeric value in h, unit omitted.

Item Cc1cccc(Cn2nc(C3CC3)c3c(NC(=O)c4cnc5cc(OCCN6CCN(C)CC6)ccn45)cccc32)n1 has what recorded Tmax?
1.97

----------
Assay: Phase 1b plasma pharmacokinetics of ARRY-382 and metabolites
Type: in vivo, human
Settings: human, plasma, oral, 300 mg, Cmax, geometric mean (geometric %CV), Cycle 2 day 1; Phase 1b; ARRY-382 300 mg; n = 4
Property measured: Cmax
Note: state the figure and append the unit.

Item Cc1cccc(Cn2nc(C3CC3)c3c(NC(=O)c4cnc5cc(OCCN6CCN(C)CC6)ccn45)cccc32)n1 has what recorded Cmax?
2260 ng/mL

----------
Assay: Phase 1b plasma pharmacokinetics of ARRY-382 and metabolites
Format: in vivo, human
Conditions: human, plasma, oral, 400 mg, AUClast, geometric mean (geometric %CV), Cycle 2 day 1; Phase 1b; ARRY-382 400 mg; n = 3
Property measured: AUC(0-t) (µg·h/mL)
Kindly answer with a numeric value in µg·h/mL, unit omitted.

Item Cc1cccc(Cn2nc(C3CC3)c3c(NC(=O)c4cnc5cc(OCCN6CCN(C)CC6)ccn45)cccc32)n1 has what recorded AUC(0-t)?
30.8
